Overview of reported pKd across a group of molecules:
# subject-of-test: PDI (Homo sapiens)
# Sequence (P07237 18-508): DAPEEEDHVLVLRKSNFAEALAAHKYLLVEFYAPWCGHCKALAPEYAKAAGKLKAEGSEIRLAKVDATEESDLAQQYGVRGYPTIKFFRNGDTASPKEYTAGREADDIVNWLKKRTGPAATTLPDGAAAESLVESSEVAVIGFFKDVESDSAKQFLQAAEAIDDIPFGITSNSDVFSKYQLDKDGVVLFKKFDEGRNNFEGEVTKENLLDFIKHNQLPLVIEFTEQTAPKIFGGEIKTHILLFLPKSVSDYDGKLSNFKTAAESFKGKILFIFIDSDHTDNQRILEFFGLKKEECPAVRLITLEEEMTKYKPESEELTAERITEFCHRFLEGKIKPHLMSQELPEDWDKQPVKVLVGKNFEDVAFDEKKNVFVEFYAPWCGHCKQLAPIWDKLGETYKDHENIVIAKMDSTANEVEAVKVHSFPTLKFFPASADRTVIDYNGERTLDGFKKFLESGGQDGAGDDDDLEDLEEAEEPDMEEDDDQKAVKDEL
# procedure-text: Resonant waveguide optical biosensor binding assay
# settings: immobilized human recombinant protein, curve fitting
pKd: −log10 of the molar value.
metric-name: pKd

                                   molecule     subject_of_test  reported_value
0  CC(C)c1cccc(C(C)C)c1N1C(=O)c2c(F)c(F)c(F)c(NC(=O)NC(=O)CCl)c2C1=O [Ac-2010]  PDI (Homo sapiens)           ~5.22
1  CC(C)c1cccc(C(C)C)c1N1C(=O)c2c(F)c(F)c(F)c(N[C@@H]3C=CS(=O)(=O)C3)c2C1=O [Ac-915]  PDI (Homo sapiens)           ~4.98
